Property: Population Fragmented Nuclei (%); scope: individual molecules
# Test system: HEK-293T
# Assay Remarks: Multiplex assay against HEK293T
# Assay type: toxicity, cell-based
# Condition Info: human, 24 h, 10 µM, compound concentration 10 uM, replicate 2
Quantity Name: Population Fragmented Nuclei (%)

INSERT INTO results (compound_string, quantity_name, val) VALUES
  ('CNC(=O)c1ccc(Nc2nc(OC3CCCC3)c3c(-c4ccc5nc(C)oc5c4)c[nH]c3n2)c(OC)c1', 'Population Fragmented Nuclei (%)', 10),
  ('NC(=O)c1cccc(-c2cc(Nc3ccc(OC(F)(F)F)cc3)ncn2)c1', 'Population Fragmented Nuclei (%)', 9),
  ('CCCS(=O)(=O)Nc1ccc(F)c(C(=O)c2c[nH]c3ncc(Cl)cc23)c1F', 'Population Fragmented Nuclei (%)', 29),
  ('CN1CCN(C(=O)C(C)(C)c2ccc(C(=O)Nc3cn4cc(-c5cc(C(C)(C)C)cc(C(C)(C)C)c5)ccc4n3)cc2)CC1', 'Population Fragmented Nuclei (%)', 4);

---

# Tested on: HEK-293T
# Assay Remarks: Multiplex assay against HEK293T
# Assay type: toxicity, cell-based
# Condition Info: human, 12 h, 1 µM, compound concentration 1 uM, replicate 2
Quantity Name: Population Hoechst High Intensity Objects (%)

INSERT INTO results (molecule, val) VALUES
  ('O=C(Nc1ccc(-n2nc(-c3cccnc3)cc2C(F)(F)F)cn1)c1ccc(-c2ccccc2)c(F)c1 [BI 2049]', 2),
  ('Cc1ccc(C(=O)Nc2cccc(C(F)(F)F)c2)cc1Nc1nc(-c2cccnc2)nc2c1cnn2C', 9),
  ('O=C1N/C(=N/c2ccccc2F)S/C1=C\c1ccc(C(=O)O)cc1', 4),
  ('CCOC(=O)c1c(C)[nH]c2ccc3c(c12)CN1CCc2cc(OC)ccc2C1O3 (stereo not drawn)', 5),
  ('CNc1cc(Oc2cc(C(=O)Nc3cc(N4CCN(C)CC4)cc(C(F)(F)F)c3)ccc2C)ncn1', 6),
  ('COc1cc2ncnc(Nc3ccc(F)c(Cl)c3)c2cc1NC(=O)/C=C/CN1CCCCC1 [DACOMITINIB ANHYDROUS]', 4),
  ('Cc1cn(-c2cc(NC(=O)c3ccc(C)c(Nc4nccc(-c5cccnc5)n4)c3)cc(C(F)(F)F)c2)cn1 [NILOTINIB]', 6),
  ('CCOc1cc2ncc(C#N)c(Nc3ccc(OCc4ccccn4)c(Cl)c3)c2cc1NC(=O)/C=C/CN(C)C [NERATINIB]', 19);

---

# Test system: HEK-293T
# Assay Remarks: Multiplex assay against HEK293T
# Type: toxicity, cell-based
# Condition Info: human, 24 h, 1 µM, compound concentration 1 uM, replicate 1
// NB: equality with 50% counts as not satisfied; only Population Pyknosed Nuclei (%) strictly below is satisfied

INSERT INTO results (molecule, qualitative_label) VALUES
  ('CN1CCC(=C2c3ccccc3CC(=O)c3sccc32)CC1.O=C(O)/C=C/C(=O)O [KETOTIFEN FUMARATE]', 'satisfied'),
  ('CCOc1cc(C(=O)N2CCC(N3CCN(C)CC3)CC2)ccc1Nc1ncc2c(n1)N(C1CCCC1)c1ccccc1C(=O)N2C', 'not satisfied'),
  ('O=C(Nc1ccc(-c2ccnc(Nc3ccc(N4CCOCC4)cc3)n2)cc1)[C@@H]1CCCN1', 'satisfied'),
  ('Cc1ccc2nc(NCCN)c3ncc(C)n3c2c1.O=C(O)C(F)(F)F.O=C(O)C(F)(F)F', 'satisfied'),
  ('CCCS(=O)(=O)c1nc(NC2CC2)cc(-c2ccc3c(ccn3C3CC(C)(C)NC(C)(C)C3)c2)n1', 'not satisfied'),
  ('CNC(=O)c1ccc(Nc2nc(OC3CCCC3)c3c(-c4ccc5nc(C)oc5c4)c[nH]c3n2)c(OC)c1', 'not satisfied'),
  ('CCOC(=O)c1c(C)[nH]c2ccc3c(c12)CN1CCc2cc(OC)ccc2C1O3 (stereo not drawn)', 'satisfied');

These entries and their values trace back to ChEMBL document CHEMBL4689842.
